Test system: PXR homodimer (NR concentration 270 nM)
Assay: PBM binding z-score (relative to random genomic background probes); higher = stronger binding; sequences stand for … in GC…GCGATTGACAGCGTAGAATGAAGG
Reported values of PBM binding z-score for individual entries
property-name: PBM binding z-score

sequence-string	observed-value
CCTACTGGGCCATTAGGTCATTGATATCAACGTT	0.202
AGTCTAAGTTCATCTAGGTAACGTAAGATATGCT	8.13
TCAGACAGGTGAATGTAACTCAGGTACGCAGTCG	-0.109
TAGCCTAGGTCATGCGGGCCAGTAGAGTGTCGGC	-0.448
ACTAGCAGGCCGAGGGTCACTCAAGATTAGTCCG	-0.0802
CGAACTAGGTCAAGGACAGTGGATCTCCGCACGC	-0.161
